test: Lipophilicity, log P of the compound; type: physicochemical; conditions: octanol/water
Each entry below carries its reported logP.

compound	logP
COc1cccc2c1CCCC2NCCN1CCN(C2CCCCC2)CC1 (racemic)	3.05
COc1cccc2c1CCCC2N(C)CCN1CCN(C2CCCCC2)CC1 (racemic)	4.83
COc1cccc2c(OCCN3CCN(C4CCCCC4)CC3)cccc12	3.94
COc1cccc2c(NCCN3CCN(C4CCCCC4)CC3)cccc12	4.08
COc1cccc2c1CCCC2CCCN1CCN(C2CCCCC2)CC1 (racemic)	5.08
COc1cccc2c1CCCC2NC(=O)CN1CCN(C2CCCCC2)CC1 (racemic)	3.69
COc1cccc2c(NC(=O)CN3CCN(C4CCCCC4)CC3)cccc12	3.44

====

Each entry below carries its reported pKi.
assay: Displacement of [3H]DTG from sigma 2 receptor in Wistar Hannover rat liver membrane in presence of (+)-pentazocine; type: cell membranes
pKi: −log10 of the molar value.

compound	pKi
COc1cccc2c1CCC[C@H]2CCCN1CCN(C2CCCCC2)CC1	8.93
COc1cccc2c(NC(=O)CN3CCN(C4CCCCC4)CC3)cccc12	7.63
COc1cccc2c1CCC[C@@H]2CCCN1CCN(C2CCCCC2)CC1	9.31
COc1cccc2c1CCCC2OCCN1CCN(C2CCCCC2)CC1 (racemic)	8.04
COc1cccc2c(OCCN3CCN(C4CCCCC4)CC3)cccc12	8.62
COc1cccc2c1CCCC2NC(=O)CN1CCN(C2CCCCC2)CC1 (racemic)	7.88

====

assay: Octanol-aqueous phases partition coefficient, log D of the compound at pH 7.4; format: physicochemical; conditions: octanol/aqueous phase
logD strictly under 2 means y; at 2 or over means n.

compound	classification
COc1cccc2c(NCCN3CCN(C4CCCCC4)CC3)cccc12	n
COc1cccc2c(NC(=O)CN3CCN(C4CCCCC4)CC3)cccc12	n
COc1cccc2c(OCCN3CCN(C4CCCCC4)CC3)cccc12	n
COc1cccc2c1CCCC2CCCN1CCN(C2CCCCC2)CC1 (racemic)	n
COc1cccc2c1CCCC2N(C)CCN1CCN(C2CCCCC2)CC1 (racemic)	y
COc1cccc2c1CCCC2NC(=O)CN1CCN(C2CCCCC2)CC1 (racemic)	n
COc1cccc2c1CCCC2NCCN1CCN(C2CCCCC2)CC1 (racemic)	y

====

assay: Displacement of [3H]DTG from sigma 2 receptor in Wistar Hannover rat liver membrane in presence of (+)-pentazocine; assay type: cell membranes
pKi: −log10 of the molar value.
Hi, to clarify the labels: satisfied covers pKi from 8 upward, not satisfied covers anything below 8.

compound	classification
COc1cccc2c(NCCN3CCN(C4CCCCC4)CC3)cccc12	not satisfied
COc1cccc2c1CCCC2CCCN1CCN(C2CCCCC2)CC1 (racemic)	satisfied
COc1cccc2c1CCC[C@@H]2OCCN1CCN(C2CCCCC2)CC1	satisfied

====

test: Displacement of [3H]DTG from sigma 2 receptor in Wistar Hannover rat liver membrane in presence of (+)-pentazocine; type: cell membranes
pKi: −log10 of the molar value.
Each entry below carries its reported pKi.

compound	pKi
COc1cccc2c1CCC[C@H]2NCCN1CCN(C2CCCCC2)CC1	7.84
COc1cccc2c1CCC[C@H]2NC(=O)CN1CCN(C2CCCCC2)CC1	8.00
COc1cccc2c1CCC[C@H]2OCCN1CCN(C2CCCCC2)CC1	7.95
COc1cccc2c1OCCC2CCCN1CCN(C2CCCCC2)CC1 (racemic)	8.01
COc1cccc2c1CCC[C@@H]2NC(=O)CN1CCN(C2CCCCC2)CC1	8.23
